- Target System: MMP1 (collagenase 1) (Homo sapiens, UniProt P03956)
- Sequence (P03956 100-469): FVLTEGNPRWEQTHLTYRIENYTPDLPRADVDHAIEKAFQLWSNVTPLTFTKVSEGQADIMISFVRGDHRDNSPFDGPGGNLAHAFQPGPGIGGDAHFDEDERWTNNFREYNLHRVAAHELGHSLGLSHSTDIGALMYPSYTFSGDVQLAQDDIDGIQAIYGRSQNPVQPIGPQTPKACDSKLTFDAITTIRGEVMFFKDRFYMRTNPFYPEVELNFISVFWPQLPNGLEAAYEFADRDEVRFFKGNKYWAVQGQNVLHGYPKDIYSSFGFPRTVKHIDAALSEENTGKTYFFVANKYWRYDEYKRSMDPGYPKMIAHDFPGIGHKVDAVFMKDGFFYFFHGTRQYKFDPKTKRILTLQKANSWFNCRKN
- Experimental Protocol: In vitro inhibition of MMP1 (collagenase 1), fluorogenic peptide substrate
- Protocol Conditions: APMA-activated recombinant human collagenase; substrate 10 μM; 37° C.
Value Kind: pIC50
The scale used: pIC50 is minus the common logarithm of the concentration in molar units.

Sample O=C(CN(Cc1ccc(-n2cncn2)cc1)S(=O)(=O)c1ccc(OCc2ccoc2)cc1)NO [Example 82c] ; pIC50 observed: 5.29

Sample C=CCCOc1ccc(S(=O)(=O)N(CC(=O)NO)Cc2ccc(N3CCOCC3)cc2)cc1 [Example 81] ; pIC50 observed: 5.37

Sample O=C(CN(Cc1ccc(-n2cncn2)cc1)S(=O)(=O)c1ccc(OCCC2CC2)cc1)NO [Example 82a] ; pIC50 observed: 5.38

Sample C#CCOc1ccc(S(=O)(=O)N(CC(=O)NO)Cc2ccc(OC)cc2)cc1 [Example 75] ; pIC50 observed: 7.16
